assay: Oral bioavailability in CD-1 mouse at 30 mg/kg measured for 480 mins by LC-ESI-MS/MS analysis; assay type: ADME, organism-based; conditions: in vivo

Smi	Units text	bioavailability
O=S(=O)(c1ccccc1)n1ccc2c(OCCNCC3CCCCC3)cccc21	%	28.7

====

experiment: Cmax in CD-1 mouse plasma at 30 mg/kg, po measured for 480 mins by LC-ESI-MS/MS analysis; format: ADME, organism-based; parameters: route oral, dose 30 mg/kg, time 480 min

Smi	Cmax (ng/mL)
O=S(=O)(c1ccccc1)n1ccc2c(OCCNCC3CCCCC3)cccc21	532

====

test: Apparent oral volume of distribution at steady state in CD-1 mouse at 30 mg/kg measured for 480 mins by LC-ESI-MS/MS analysis; format: ADME, organism-based; details: in vivo

Smi	Vd/F (L/kg)
O=S(=O)(c1ccccc1)n1ccc2c(OCCNCC3CCCCC3)cccc21	81.4
